Every entry's value here was drawn from paper PMC6222425.

# Tested on: B16 (mouse melanoma) cells
# assay.method.text: Cell viability analysis by MTT assay, B16
# Type: cell-based
# study.conditions: MTT, 48 h incubation; read-out: Antiproliferative activity, IC50, B16
Parameter: pIC50. Scope: all listed entries.
Please keep in mind that pIC50 is minus log10 of the molar concentration; only the number is needed.

Known results for molecules:
# molecule, tested.system, val
rows = [
    ("CC(C)(C)c1ccc(-c2cc3cn(C4C=CC(O)C4)c(=O)nc3[nH]2)cc1 (stereo not drawn)", "B16 (mouse melanoma) cells", 4.45),
    ("CCCCCCCCCCc1cc2cn(C3C=CC(O)C3)c(=O)nc2[nH]1 (stereo not drawn)", "B16 (mouse melanoma) cells", 4.60),
]

GET pIC50 where system = B16 (mouse melanoma) cells and item = CCCCCc1ccc(-c2cc3cn(C4C=CC(O)C4)c(=O)nc3o2)cc1 (stereo not drawn)
4.67

----------
# Test system: human noncancer cells hFF3 (fibroblasts)
# assay.method.text: Cell viability analysis by MTT assay, normal hFF3 cells
# Assay type: cell-based
# study.conditions: concentrations up to 100 μM
result.type: Toxic effect on normal hFF3 cells

# molecule, val
rows = [
    ("O=c1nc2[nH]c(-c3ccccc3)cc2cn1C1C=CC(O)C1 (centres unmarked) [Compound 4g]", "not toxic"),
    ("CCCCCc1cc2cn(C3C=CC(O)C3)c(=O)nc2o1 (centres unmarked) [Compound 3b]", "no toxic effect"),
    ("O=c1nc2oc(-c3ccccc3)cc2cn1C1C=CC(O)C1 (centres unmarked) [Compound 3g]", "not toxic"),
    ("CCCc1cc2cn(C3C=CC(O)C3)c(=O)nc2[nH]1 (centres unmarked) [Compound 4a]", "no toxic effect"),
    ("CCCCCCCCCCc1cc2cn(C3CC(O)C(O)C3O)c(=O)nc2o1 (centres unmarked) [Compound 5]", "not toxic"),
    ("CCCCCc1ccc(-c2cc3cn(C4C=CC(O)C4)c(=O)nc3o2)cc1 (centres unmarked) [Compound 3i]", "not toxic"),
]

Provide one value: measured Toxic effect on normal hFF3 cells of CCCCCCc1cc2cn(C3C=CC(O)C3)c(=O)nc2o1 (centres unmarked) [Compound 3c]
not toxic

Please list Toxic effect on normal hFF3 cells recorded for the molecule CCCc1cc2cn(C3C=CC(O)C3)c(=O)nc2o1 (centres unmarked) [Compound 3a]
not toxic

----------
# System: A549 (human lung adenocarcinoma) cells
# assay.method.text: Cell viability analysis by MTT assay, A549
# Type: cell-based
# study.conditions: Homo sapiens, A549; MTT, 48 h incubation; read-out: Antiproliferative activity, IC50, A549
result.type: pIC50
Lab note — pIC50 values are minus log10 of concentrations in M.

# compound, result.type, val
data = [
    ("CCCCCc1ccc(-c2cc3cn(C4C=CC(O)C4)c(=O)nc3o2)cc1 (stereo not shown) [Compound 3i]", "pIC50", 4.32),
    ("CCCCCCCCc1cc2cn(C3C=CC(O)C3)c(=O)nc2[nH]1 (stereo not shown) [Compound 4d]", "pIC50", 4.00),
    ("CCCCCc1cc2cn(C3C=CC(O)C3)c(=O)nc2[nH]1 (stereo not shown) [Compound 4b]", "pIC50", 4.34),
    ("CCCCCCc1cc2cn(C3C=CC(O)C3)c(=O)nc2o1 (stereo not shown) [Compound 3c]", "pIC50", 4.30),
    ("CC(C)(C)c1ccc(-c2cc3cn(C4C=CC(O)C4)c(=O)nc3o2)cc1 (stereo not shown) [Compound 3h]", "pIC50", 5.14),
    ("CCCCCCCCCCCCc1cc2cn(C3C=CC(O)C3)c(=O)nc2[nH]1 (stereo not shown) [Compound 4f]", "pIC50", 5.35),
]

For the compound O=c1nc2[nH]c(-c3ccccc3)cc2cn1C1C=CC(O)C1 (stereo not shown) [Compound 4g] , give its reported pIC50.
4.30

Note down pIC50 recorded for CCCCCCCCCCc1cc2cn(C3C=CC(O)C3)c(=O)nc2[nH]1 (stereo not shown) [Compound 4e]
4.44

----------
Parameter: pIC50. Scope: all listed entries.
# Test system: human noncancer cells hFF3 (fibroblasts)
# assay.method.text: Cell viability analysis by MTT assay, normal hFF3 cells
# Assay type: cell-based
# study.conditions: Homo sapiens, HFF-3, 48 h, normal cells, MTT, 48 h incubation; read-out: Antiproliferative activity, IC50, hHFF3
Scale: pIC50 equals -log10([C]), with [C] in mol/L.

# compound, result.type, val
rows = [
    ("CCCCCCCCCCCCc1cc2cn(C3C=CC(O)C3)c(=O)nc2o1 (stereo not shown)", "pIC50", 4.99),
]

Give pIC50 for CCCCCCCCCCCCc1cc2cn(C3C=CC(O)C3)c(=O)nc2[nH]1 (stereo not shown)
5.47

Provide pIC50 value for the following compound: CCCCCCCCCCc1cc2cn(C3C=CC(O)C3)c(=O)nc2o1 (stereo not shown)
4.94

Output measured pIC50 for this item: CCCCCCCCCCc1cc2cn(C3C=CC(O)C3)c(=O)nc2[nH]1 (stereo not shown)
4.20

Complete the entry with pIC50 for CC(C)(C)c1ccc(-c2cc3cn(C4C=CC(O)C4)c(=O)nc3[nH]2)cc1 (stereo not shown)
4.15

Note pIC50 for the compound shown: CCCCCc1ccc(-c2cc3cn(C4C=CC(O)C4)c(=O)nc3[nH]2)cc1 (stereo not shown)
4.66

Tell us which pIC50 value is on record for CCCCCCCCc1cc2cn(C3C=CC(O)C3)c(=O)nc2o1 (stereo not shown)
4.32

// fetch pIC50 given entry CC(C)(C)c1ccc(-c2cc3cn(C4C=CC(O)C4)c(=O)nc3o2)cc1 (stereo not shown)
5.29

----------
# Test system: HeLa (human cervical epithelioid carcinoma) cells
# assay.method.text: Cell viability analysis by MTT assay, HeLa
# Assay type: cell-based
# study.conditions: Homo sapiens, HeLa; MTT, 48 h incubation; read-out: Antiproliferative activity, IC50, HeLa
result.type: pIC50
For clarity, pIC50 is expressed as the negative log10 of concentration in mol/L.

A selection of reference data follows.
# compound, result.type, val
measured = [
    ("CCCCCCCCc1cc2cn(C3C=CC(O)C3)c(=O)nc2o1 (stereo not shown)", "pIC50", 4.39),
    ("CCCCCc1ccc(-c2cc3cn(C4C=CC(O)C4)c(=O)nc3[nH]2)cc1 (stereo not shown)", "pIC50", 4.95),
    ("CCCc1cc2cn(C3C=CC(O)C3)c(=O)nc2o1 (stereo not shown)", "pIC50", 4.20),
    ("CCCCCCCCCCCCc1cc2cn(C3C=CC(O)C3)c(=O)nc2o1 (stereo not shown)", "pIC50", 5.60),
    ("CCCCCc1ccc(-c2cc3cn(C4C=CC(O)C4)c(=O)nc3o2)cc1 (stereo not shown)", "pIC50", 5.19),
    ("CCCCCCCCCCc1cc2cn(C3C=CC(O)C3)c(=O)nc2[nH]1 (stereo not shown)", "pIC50", 4.96),
    ("O=c1nc2[nH]c(-c3ccccc3)cc2cn1C1C=CC(O)C1 (stereo not shown)", "pIC50", 4.04),
    ("CC(C)(C)c1ccc(-c2cc3cn(C4C=CC(O)C4)c(=O)nc3[nH]2)cc1 (stereo not shown)", "pIC50", 4.59),
    ("CCCCCCc1cc2cn(C3C=CC(O)C3)c(=O)nc2[nH]1 (stereo not shown)", "pIC50", 4.29),
    ("CC(C)(C)c1ccc(-c2cc3cn(C4C=CC(O)C4)c(=O)nc3o2)cc1 (stereo not shown)", "pIC50", 5.64),
]

Give reported pIC50 value for CCCCCc1cc2cn(C3C=CC(O)C3)c(=O)nc2[nH]1 (stereo not shown)
4.30

Give a short answer stating reported pIC50 for CCCCCCCCCCc1cc2cn(C3C=CC(O)C3)c(=O)nc2o1 (stereo not shown) .
5.35

Read the entry CCCCCCCCc1cc2cn(C3C=CC(O)C3)c(=O)nc2[nH]1 (stereo not shown) and write its reported pIC50.
4.70

Return reported pIC50. Input compound: O=c1nc2oc(-c3ccccc3)cc2cn1C1C=CC(O)C1 (stereo not shown)
4.34

Assign pIC50 to the following record: CCCCCCCCCCc1cc2cn(C3CC(O)C(O)C3O)c(=O)nc2o1 (stereo not shown)
4.15

Quick one: give measured pIC50 for CCCCCCCCCCCCc1cc2cn(C3C=CC(O)C3)c(=O)nc2[nH]1 (stereo not shown)
5.49

----------
# Test system: A549 (human lung adenocarcinoma) cells
# assay.method.text: Cell viability analysis by MTT assay, A549
# Format: cell-based
# study.conditions: Homo sapiens, A549; MTT, 48 h incubation; read-out: Antiproliferative activity, IC50, A549
# Method: The target compounds were tested on different lines of tumor cells, HuTu-80 (human duodenal cancer), B16 (mouse melanoma), A549 (human lung adenocarcinoma), KB-3-1 (human squamous cell carcinoma), HeLa (human squamous cell carcinoma of the cervix), as well as on human noncancer cells hFF3. […]
IC50 overview
Reply numerically in µM, unit not repeated.

Before answering, review these 3 worked examples.
# compound, result.type, val
records = [
    ("CCCCCCCCCCc1cc2cn(C3C=CC(O)C3)c(=O)nc2o1 (centres unmarked) [Compound 3e]", "IC50", 36.2),
    ("CCCCCCCCc1cc2cn(C3C=CC(O)C3)c(=O)nc2o1 (centres unmarked) [Compound 3d]", "IC50", 54.1),
    ("CC(C)(C)c1ccc(-c2cc3cn(C4C=CC(O)C4)c(=O)nc3[nH]2)cc1 (centres unmarked) [Compound 4h]", "IC50", 25.3),
]

For A549 (human lung adenocarcinoma) cells, give the measured IC50 of the entry CCCCCCc1cc2cn(C3C=CC(O)C3)c(=O)nc2[nH]1 (centres unmarked) [Compound 4c]
35.2

// fetch IC50; item: CCCCCCCCCCCCc1cc2cn(C3C=CC(O)C3)c(=O)nc2o1 (centres unmarked) [Compound 3f] ; system: A549 (human lung adenocarcinoma) cells
10.5

Enter measured IC50, system A549 (human lung adenocarcinoma) cells, for the compound shown: CCCCCc1ccc(-c2cc3cn(C4C=CC(O)C4)c(=O)nc3[nH]2)cc1 (centres unmarked) [Compound 4i]
15.6
